Tested on: HIV-1 nucleocapsid protein NCp7 (binding to TG oligonucleotide)
Assay procedure: HIV Nucleocapsid (AID 346);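 note: potency is the fitted concentration of half-maximal effect; potency is for inhibitors that block NC binding and lower polarization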
Details: HIV-1 NC / fluorescein-TGTGTGTG probe, fluorescence polarization
Calls of active or inactive are those of the source. The rule behind the calls is not given here.
Assign a class; possible classes are active, inactive

### Prompt Give the logged outcome of this assay for the following molecule: COCCn1c(=O)c(C)nc2cnc(N3CCNCC3)nc21
### Response inactive

### Prompt Next molecule: Cc1ccccc1-c1cncnc1N1CCN(C)CC1
### Response inactive

### Prompt Next molecule: COc1ccc(C(=O)N2CCC3(CCCN(C(=O)Nc4cccc(F)c4)C3)CC2)cc1
### Response inactive

### Prompt Next molecule: CCNc1ncc2ncc(=O)n(Cc3ccc(F)cc3)c2n1
### Response inactive

### Prompt Next molecule: CC(C)CN1CCCC2(CCN(C(=O)c3csnn3)CC2)C1
### Response inactive

### Prompt Next molecule: CN(C)c1ncc2nc(-c3cccc(C#N)c3)c(=O)n(CCC#N)c2n1
### Response inactive

### Prompt Next molecule: CCNc1ncc2nc(C)c(=O)n(Cc3cccc(OC)c3)c2n1
### Response inactive

### Prompt Next molecule: O=C(c1ccncc1)N1CCC[C@@]2(CCN(c3ccccc3)C2)C1
### Response inactive

### Prompt Next molecule: COCCn1c(=O)c(-c2cccc(C#N)c2)nc2cnc(Oc3ccccc3)nc21
### Response inactive

### Prompt Next molecule: COCCn1c(=O)c(-c2ccc(OC)cc2)nc2cnc(Nc3cccc(OC)c3)nc21
### Response active

### Prompt Next molecule: COc1cccc(Cn2c(=O)cnc3cnc(N4CCOCC4)nc32)c1
### Response inactive

### Prompt Next molecule: N#Cc1cccc(-c2nc(N3CCNCC3)c3ccccc3n2)c1
### Response inactive

### Prompt Next molecule: COc1ccc(-n2c(=O)c(C)nc3cnc(Oc4ccccc4)nc32)cc1
### Response inactive

### Prompt Next molecule: O=c1c(-c2ccc(F)cc2)nc2cnc(Oc3ccccc3)nc2n1C1CC1
### Response inactive

### Prompt Next molecule: c1ccc(CNc2nc(-c3cccnc3)nc3ccccc23)cc1
### Response inactive

### Prompt Next molecule: CN(C)C(=O)c1ccc(-c2nccc(N(C)Cc3ccco3)n2)cc1
### Response inactive

### Prompt Next molecule: CS(=O)(=O)Nc1cccc(-c2nc(Nc3ccc(F)cc3)c3ccccc3n2)c1
### Response inactive

### Prompt Next molecule: O=c1cnc2cnc(OCc3ccccc3)nc2n1CCc1ccccc1
### Response inactive

### Prompt Next molecule: CN(C)C(=O)c1ccc(-c2ccc3ncnc(Nc4ccc(F)cc4)c3c2)cc1
### Response inactive

### Prompt Next molecule: CNc1nc(-c2ccoc2)nc2ccccc12
### Response inactive

### Prompt Next molecule: Cn1cccc1C(=O)N1CCC2(CCCN(c3ncccn3)C2)CC1
### Response inactive

### Prompt Next molecule: Cc1ccccc1-c1nccc(NCc2cccs2)n1
### Response inactive

### Prompt Next molecule: CN1CCN(c2ncc3ncc(=O)n(CCC#N)c3n2)CC1
### Response inactive

### Prompt Next molecule: O=C(Nc1ccccc1)N1CCCC2(CCN(C(=O)c3csnn3)CC2)C1
### Response inactive

### Prompt Next molecule: Cc1nc2cnc(OCc3ccccc3)nc2n(CCc2ccccc2)c1=O
### Response inactive

### Prompt Next molecule: CC(C)NC(=O)N1CCC2(CC1)CCN(C(=O)c1cnccn1)CC2
### Response inactive

### Prompt Next molecule: COc1ccc(CNc2ncncc2-c2ccccc2C)c(OC)c1
### Response inactive

### Prompt Next molecule: O=c1c(-c2cccc(F)c2)nc2cncnc2n1Cc1ccc(F)cc1
### Response inactive

### Prompt Next molecule: N#Cc1ccc(CN2CC3(CCN(C(=O)c4csnn4)CC3)C2)cc1
### Response inactive

### Prompt Next molecule: Cc1nc2cnc(N3CCOCC3)nc2n(C[C@H]2CCCO2)c1=O
### Response inactive

### Prompt Next molecule: Cc1cnc(CNc2ncncc2-c2ccccc2C#N)cn1
### Response inactive

### Prompt Next molecule: Cn1cc(-c2nc3cnc(N4CCNCC4)nc3n(C3CC3)c2=O)c2ccccc21
### Response inactive

### Prompt Next molecule: O=c1c(-c2cccs2)nc2cnc(N3CCOCC3)nc2n1Cc1ccc(F)cc1
### Response inactive

### Prompt Next molecule: O=c1cnc2cnc(Oc3cccc(Cl)c3)nc2n1Cc1ccc(F)cc1
### Response inactive

### Prompt Next molecule: O=c1c(CCc2ccccc2)nc2cnc(N3CCOCC3)nc2n1-c1ccccc1
### Response inactive

### Prompt Next molecule: N#Cc1cccc(-c2cncnc2NCc2ccccc2)c1
### Response inactive

### Prompt Next molecule: COc1ccccc1CN1CCC2(CC1)CCN(C(C)=O)CC2
### Response inactive

### Prompt Next molecule: O=S(=O)(c1ccccc1)N1CCC[C@@]2(CCN(c3cccc(-c4ccccc4)c3)C2)C1
### Response inactive

### Prompt Next molecule: Cc1noc(C)c1-c1cc(NCCN2CCOCC2)ncn1
### Response inactive

### Prompt Next molecule: O=C(Oc1ccccc1)N1CCC2(CC1)CCN(c1cccc(-c3ccccc3)c1)CC2
### Response inactive

### Prompt Next molecule: CC(=O)NCCNc1ncnc2ccc(-c3cccc(NS(C)(=O)=O)c3)cc12
### Response inactive

### Prompt Next molecule: COCCn1c(=O)cnc2cnc(N(C)C)nc21
### Response inactive

### Prompt Next molecule: COC(=O)N1CCC2(CC1)CCN(c1cccc(-c3ccccc3)c1)CC2
### Response inactive

### Prompt Next molecule: COc1cccc(Nc2ncc3nc(-c4cccs4)c(=O)n(C[C@H]4CCCO4)c3n2)c1
### Response inactive

### Prompt Next molecule: O=C(c1ccncc1)N1CCC2(CC1)CN(c1ncccn1)C2
### Response inactive

### Prompt Next molecule: COCCn1c(=O)cnc2cnc(OC)nc21
### Response inactive

* * *

Target or system: Cytochrome P450 1A2 (Homo sapiens) (UniProt P05177)
Sequence (P05177 whole entry, looked up): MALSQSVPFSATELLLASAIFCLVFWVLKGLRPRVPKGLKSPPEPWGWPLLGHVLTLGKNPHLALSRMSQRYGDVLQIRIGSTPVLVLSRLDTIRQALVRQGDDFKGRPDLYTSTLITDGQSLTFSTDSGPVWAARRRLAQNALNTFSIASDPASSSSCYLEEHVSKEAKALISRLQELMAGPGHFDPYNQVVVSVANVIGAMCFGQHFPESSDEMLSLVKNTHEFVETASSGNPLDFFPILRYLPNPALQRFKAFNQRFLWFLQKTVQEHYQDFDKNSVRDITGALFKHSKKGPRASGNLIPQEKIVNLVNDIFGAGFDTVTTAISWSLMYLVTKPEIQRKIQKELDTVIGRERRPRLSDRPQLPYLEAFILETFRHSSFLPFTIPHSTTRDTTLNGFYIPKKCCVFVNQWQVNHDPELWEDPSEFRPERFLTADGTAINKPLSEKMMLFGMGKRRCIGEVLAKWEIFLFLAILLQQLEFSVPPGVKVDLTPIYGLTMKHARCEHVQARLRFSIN
Assay procedure: p450-cyp1a2 (AID 410); note: potency is the fitted concentration of half-maximal effect
Details: recombinant CYP1A2, luciferin-ME demethylation, luminescence; series mostly up to 11.4 µM
Results filed as inconclusive are left out. Activity calls are given as the source filed them. The call rests on the fitted dose curve.
Value kind: Potency

### Prompt Field request: Potency | item: CN(CCC(=O)O)C1=Nc2ccc(Cl)cc2C(c2ccccc2)=[N+]([O-])C1
### Response 63.1 nM (active)

### Prompt Next compound: Cc1ccc(NC(=[OH+])c2cc3ccccc3cc2O)c(C)c1.Cc1ccc(NC(=[OH+])c2cc3ccccc3cc2O)c(C)c1.[Ni]
### Response 251 nM (active)

### Prompt Next compound: O=C(O)CN1C(=O)CN=C(c2ccccn2)c2cc(Cl)ccc21
### Response 1260 nM (active)

### Prompt Next compound: CC(C)C[C@H](NP(=O)(O)O[C@@H]1O[C@@H](C)[C@@H](O)[C@@H](O)[C@H]1O)C(=O)N[C@@H](Cc1c[nH]c2ccccc12)C(=O)O
### Response inactive

### Prompt Next compound: NC(=O)CN1C[C@@H](O)CC1=O
### Response inactive

### Prompt Next compound: C[As+](C)(c1ccc(Br)c([N+](=O)[O-])c1)c1ccc(Br)c([N+](=O)[O-])c1.O=[N+]([O-])O
### Response inactive

### Prompt Next compound: O=C(O)C(C(=O)O)P(=S)(S)c1ccccc1 (centres undefined)
### Response inactive

### Prompt Next compound: NCCc1ccc(S(=O)(=O)O)cc1[N+](=O)[O-]
### Response inactive

Continuing:
### Prompt Field request: Potency | item: C[C@@]12CC[C@H]3[C@@H](CC=C4C[C@H](OS(=O)(=O)O)CC[C@]43C)[C@H]1CCC2=O
### Response inactive

* * *

Assay procedure: Cell Viability - LYMP2-020 (AID 986);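 note: cells exposed to compound for 24 h at 37 °C; nearly all actives have a fitted effect of over 55% in size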
Details: series mostly up to 92.2 µM
From the text: NIH Chemical Genomics Center [NCGC] NIH Molecular Libraries Screening Centers Network [MLSCN] National Institutes of Environmental Health Sciences [NIEHS] National Toxicology Program [NTP] We have developed a 1536-well cell-based assay for quantitative high throughput screening (qHTS) against a number of cell lines to determine in vitro cytotoxicity of small molecules. […] 8. Detection; Luminescence; Viewlux plate reader […]
Records with an inconclusive call do not appear. The source made the active and inactive calls. The call rests on the fitted dose curve; in most records, active means well fitted cell-killing curve with a large enough effect; inconclusive means small, poorly fitted or top-dose-only effect; inactive means flat fitted curve, though single readings scatter.
Assign a class; possible classes are 1 (yes) = active, 0 (no) = inactive

### Prompt Give the logged outcome of this assay for the following molecule: CCCCCC[N+](=O)[O-]
### Response 0 (no)

### Prompt Next molecule: CCCCOCC1CO1 (configuration not stated)
### Response 0 (no)

### Prompt Next molecule: C/C=C/CC#N
### Response 0 (no)

### Prompt Next molecule: CCCCNC(=O)n1c(NC(=O)OC)nc2ccccc21
### Response 0 (no)

### Prompt Next molecule: CC(C)C#N
### Response 0 (no)

### Prompt Next molecule: CC[N+](=O)[O-]
### Response 0 (no)

### Prompt Next molecule: CC(Cl)CCl (configuration not stated)
### Response 0 (no)

### Prompt Next molecule: COc1cc(-c2ccc(N)c(OC)c2)ccc1N
### Response 0 (no)

### Prompt Next molecule: O=[N+]([O-])c1cc(Cl)c(Cl)c(Cl)c1
### Response 0 (no)

### Prompt Next molecule: ClCC(Br)CBr (configuration not stated)
### Response 0 (no)

### Prompt Next molecule: S=c1[nH]c2ccccc2[nH]1
### Response 0 (no)

### Prompt Next molecule: C=CC(=O)OCC(C)C
### Response 0 (no)

### Prompt Next molecule: COc1c(C(C)(C)C)cc([N+](=O)[O-])c(C)c1[N+](=O)[O-]
### Response 0 (no)

### Prompt Next molecule: C=CCOCC1CO1 (configuration not stated)
### Response 0 (no)

### Prompt Next molecule: CCOC(=O)CBr
### Response 0 (no)

### Prompt Next molecule: N#C/C=C/C#N
### Response 1 (yes)

### Prompt Next molecule: Cl/C=C/Cl
### Response 0 (no)
